Consider the following variants; for each one, report its protein stability index.
B1: PKD2L1 (parent)
chain: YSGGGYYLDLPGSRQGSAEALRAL

- Variants of: B1
- METHOD_DESCRIPTION: protein stability index of a GFP-peptide fusion (GPS, HEK-293T) (PSI 1-6); higher = more stable;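 further: lentivirally expressed fusions sorted by FACS into six bins by GFP to DsRed ratio, PSI derived from sequencing read proportions per bin multiplied by bin number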
- MEASUREMENT_PARAMETERS: c terminus: a fixed tail appended
Numbers only.

Worked examples follow.
YSGGGYYLYLPGSRQGSAEALRAL [D9Y] = 4.13
YSGGGYYLDLPGHRQGSAEALRAL [S13H] = 1.58
YSGGGYYLDLPGSRQGSAEAYRAL [L21Y] = 1.91
PSGGGYYLDLPGSRQGSAEALRAL [Y1P] = 3.49
YSGGGYYLDLPGSRQGSAEALMAL [R22M] = 2.61

Need protein stability index for each of these variants.
1. YSQGGYYLDLPGSRQGSAEALRAL [G3Q]
2. YSGGFYYLDLPGSRQGSAEALRAL [G5F]
3. YSGGGYYLDLPGSRQGSAEVLRAL [A20V]
4. YSGGGYYLDLPGSRQGSAEAARAL [L21A]
5. YSGGGYYLDLPGSRQDSAEALRAL [G16D]
6. YSGGGYYLDLPYSRQGSAEALRAL [G12Y]
7. YSGFGYYLDLPGSRQGSAEALRAL [G4F]
8. YSGGGYYLDLPGSRQGSAEAPRAL [L21P]

-- reply
1: 1.52; 2: 2.17; 3: 1.6; 4: 1.46; 5: 2.02; 6: 1.49; 7: 2.49; 8: 2.23
